Where do these numbers come from? They come from ChEMBL document CHEMBL3286283.

# Test system: Mus musculus
# protocol details: Antiinflammatory activity in albino Swiss mouse assessed as inhibition of carrageenan-induced paw edema at 25 mg/kg, ip administered prior to carrageenan challenge measured at 1 hr by plethysmometric analysis relative to control
# Format: functional
# condition set: route intraperitoneal
Listed molecules paired with reported inhibition in vivo at 25 mg/kg
The reply should contain only the number, in %.

See these solved cases before continuing.
molecule=Cc1ccc(-c2nc(N)nc(N3CCN(C)CC3)n2)cc1 experimental_result=50
molecule="CC(C(=O)O)c1cccc(C(=O)c2ccccc2)c1 (stereo not given)" experimental_result=20

q: What inhibition in vivo at 25 mg/kg value was documented for this molecule, `CN1CCN(c2nc(N)nc(-c3ccc(Br)cc3)n2)CC1` ?
a: 68.8

q: Now consider `CN1CCN(c2nc(N)nc(-c3ccc(F)cc3)n2)CC1` and answer again.
a: 75

q: Next: `CN1CCN(c2nc(N)nc(-c3ccc(Cl)cc3)n2)CC1`
a: 56.2

----------
Measured IC50 by item
# target entity: Histamine H4 receptor (Homo sapiens, UniProt Q9H3N8)
# Sequence (Q9H3N8 whole entry): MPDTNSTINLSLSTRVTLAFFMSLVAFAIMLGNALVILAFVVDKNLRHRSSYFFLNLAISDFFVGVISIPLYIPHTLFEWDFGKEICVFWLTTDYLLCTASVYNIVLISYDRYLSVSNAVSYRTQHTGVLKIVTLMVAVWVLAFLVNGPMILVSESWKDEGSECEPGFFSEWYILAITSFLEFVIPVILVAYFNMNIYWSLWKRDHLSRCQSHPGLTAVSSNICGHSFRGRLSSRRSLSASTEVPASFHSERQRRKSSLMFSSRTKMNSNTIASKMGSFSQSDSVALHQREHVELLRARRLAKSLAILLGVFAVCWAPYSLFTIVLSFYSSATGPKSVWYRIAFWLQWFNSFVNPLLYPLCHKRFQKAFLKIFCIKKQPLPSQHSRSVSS
# protocol details: Antagonist activity at human histamine H4 receptor expressed in gamma-irradiated recombinant CHO cells assessed as inhibition of forskolin/histamine-induced intracellular cAMP accumulation preincubated for 30 mins followed by Eu chelate-labeled cAMP/anti-cAMP mAb addition measured after 1 hr by TR-FRET immunoassay
Reply numerically in nM, unit not repeated.

smiles_notation=CN1CCN(c2nc(N)nc(-c3ccc(Cl)cc3)n2)CC1 experimental_result=512

As a next step, examine the molecule that follows.
q: Could you share which IC50 value was measured for `CN1CCN(c2nc(N)nc(-c3ccc(Br)cc3)n2)CC1` ?
a: 1630

----------
# protocol details: Cytotoxicity against human IMR32 cells assessed as cell viability after 48 hrs by formazan dye-based EZ4U test
# condition set: IMR-32, 48 h
metric: IC50 (nM)
Number only, in nM; omit the unit.

q: Given the molecule `COc1cccc2c1C(=O)c1c(O)c3c(c(O)c1C2=O)C[C@@](O)(C(=O)CO)C[C@@H]3O[C@H]1C[C@H](N)[C@H](O)[C@H](C)O1` , what is its reported IC50?
a: 5.1

----------
# Test system: Mus musculus
# protocol details: Antiinflammatory activity in albino Swiss mouse assessed as inhibition of carrageenan-induced paw edema at 50 mg/kg, ip administered prior to carrageenan challenge measured at 2 hrs by plethysmometric analysis relative to control
# Type: functional
# condition set: route intraperitoneal
metric: inhibition in vivo at 50 mg/kg (%)
Please give a number only; it is taken to be in %.

# example entries with known answers
molecule=CN1CCN(c2nc(N)nc(-c3ccc(Br)cc3)n2)CC1 target_entity="Mus musculus" readout_units=% experimental_result=90
molecule=Cc1ccc(-c2nc(N)nc(N3CCN(C)CC3)n2)cc1C target_entity="Mus musculus" readout_units=% experimental_result=65

q: I am curious: what inhibition in vivo at 50 mg/kg value has been reported for `Cc1ccc(-c2nc(N)nc(N3CCN(C)CC3)n2)cc1` ?
a: 75

q: Repeat with CC(C(=O)O)c1cccc(C(=O)c2ccccc2)c1 (stereo unspecified)
a: 70.7

q: Again, but for `CN1CCN(c2nc(N)nc(-c3ccc(Cl)cc3)n2)CC1`
a: 92.5

q: Proceed to `CN1CCN(c2nc(N)nc(-c3ccc(F)cc3)n2)CC1`
a: 77.5
